Listed here: items and their measured inhibition at 50 µM.
Biological target: LasB elastase activity in dialysed supernatant from P. aeruginosa strain PA01 (Pseudomonas aeruginosa)
Construct: uses as source of enzyme dialysed supernatant from P. aeruginosa; endogenous in cells; host or cells: P. aeruginosa strain PA01 culture supernatant, filtered and dialysed
Sequence (P14756 198-498): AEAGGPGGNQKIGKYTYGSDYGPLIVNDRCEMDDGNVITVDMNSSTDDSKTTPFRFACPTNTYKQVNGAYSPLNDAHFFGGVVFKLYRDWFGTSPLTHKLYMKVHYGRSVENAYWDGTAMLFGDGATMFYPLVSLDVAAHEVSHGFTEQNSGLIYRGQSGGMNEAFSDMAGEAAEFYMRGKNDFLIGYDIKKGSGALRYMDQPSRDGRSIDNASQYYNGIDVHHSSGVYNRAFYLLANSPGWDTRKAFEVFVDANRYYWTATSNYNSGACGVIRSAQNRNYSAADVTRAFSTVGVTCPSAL
Assay: Elastin Congo Red assay to determine % inhibition (Assay 1)
Assay type: biochemical
Conditions: read-out: Elastin hydrolysis % inhibition @ 50/25 μM inhibitor concentration Assay 1

Solved cases (6 shown):
> print(dat)
                               query.smiles     measurement.type  result
1  O=C(O)CC1(C(=O)NCc2nc3cnccc3s2)Cc2ccccc2C1  inhibition at 50 µM   > 60%
2  C[N+](C)(C)CCCc1ccc2sc(CNC(=O)C3(CC(=O)[O-])Cc4ccccc4C3)nc2c1  inhibition at 50 µM   > 60%
3  CN(C)CC#Cc1ccc2sc(CNC(=O)C3(CC(=O)O)Cc4ccccc4C3)nc2c1  inhibition at 50 µM   > 60%
4  O=C(O)CC1(C(=O)NCc2nc3c(I)cccc3s2)Cc2ccccc2C1  inhibition at 50 µM   > 60%
5  N[C@@H]1CCN(c2ccc3sc(CNC(=O)C4(CC(=O)O)Cc5ccccc5C4)nc3c2)C1  inhibition at 50 µM   > 60%
6  NCCc1ccc2nc(CNC(=O)C3(CC(=O)O)Cc4ccccc4C3)sc2c1  inhibition at 50 µM   > 60%

For O=C(O)CC1(C(=O)NCc2coc3ccccc23)Cc2ccccc2C1 , what is its reported inhibition at 50 µM?
30 to 60%

Lookup Cn1cnc(CNC(=O)C2(CC(=O)O)Cc3ccccc3C2)c1
30 to 60%

Lookup NC/C=C/c1ccc2sc(CNC(=O)C3(CC(=O)O)Cc4ccccc4C3)nc2c1
> 60%

---

Listed here: items and their measured Ki.
Target: purified LasB protein from P. aeruginosa (Pseudomonas aeruginosa)
Construct: purchased Merck or Charles River Laboratories
Sequence (P14756 198-498): as above
Assay: Fluorometric assay to determine Ki (Assay 1)
Type: biochemical
Conditions: Ki (μM) Assay 1, purified LasB, substrate Abz-Ala-Gly-Leu-Ala-p-Nitro-Benzyl-Amide 250 μM, Ki calculated from IC50; inhibitor 0.006 to 200 μM

> print(dat)
                                   compound       result
1  CN1CCN(c2ccc3nc(CNC(=O)C4(CC(=O)O)Cc5ccccc5C4)sc3c2)CC1  0.3 to 2 µM
2  C[N+](C)(C)CCOc1ccc2sc(CNC(=O)C3(CC(=O)[O-])Cc4ccccc4C3)nc2c1  0.3 to 2 µM
3  CC(NC(=O)C1(CC(=O)O)Cc2ccccc2C1)c1cc2ccccc2o1 (single isomer, unassigned) [Example 59]  0.3 to 2 µM
4  CN(C)CCNc1ccc2sc(CNC(=O)C3(CC(=O)O)Cc4ccccc4C3)nc2c1  0.3 to 2 µM
5  O=C(O)CC1(C(=O)NCc2nc3c(Br)cccc3s2)Cc2ccccc2C1     < 0.3 µM

For O=C(O)CC1(C(=O)NCC2COc3ccccc3O2)Cc2ccccc2C1 (centres unmarked) , what is its reported Ki?
0.3 to 2 µM

Lookup O=C(O)CC1(C(=O)NCCc2cc3ccccc3[nH]2)Cc2ccccc2C1
2 to 10 µM

Lookup O=C(O)CC1(C(=O)NCCc2nc3ccccc3[nH]2)Cc2ccccc2C1
2 to 10 µM

Origin of measurements: patent US11000511B2
